growth values by entry
- System: SN12C renal
- Experimental protocol: NCI-60 one-dose screen, 48 h (100 = growth as untreated, 0 = no growth, -100 = all killed)
- Measurement parameters: 10 µM unless noted
Compounds without any hit were thinned out: in the full panel of roughly 83,000, 20% have a hit.
Write down the numeric answer in % and omit the unit.

Answered cases to consult:
[
  {
    "Compound string": "CC(=O)C(=Cc1ccc(C=C(C(C)=O)C(C)=O)cc1)C(C)=O",
    "Readout unit": "%",
    "Assay result": 17.4
  },
  {
    "Compound string": "Cc1cc(C(C)(CC(C)C)c2ccc(O)c(C)c2)ccc1O",
    "Readout unit": "%",
    "Assay result": 85.6
  },
  {
    "Compound string": "Cc1ccc2c(ccc3c[n+]4c5ccccc5ccc4n32)c1",
    "Readout unit": "%",
    "Assay result": 5.27
  },
  {
    "Compound string": "CN(C)c1ccc(N=Nc2cccc3ccccc23)cc1",
    "Readout unit": "%",
    "Assay result": 92.9
  }
]

// query Entry `CC(C)(C)c1ccc(O)c(C2CCCCC2)c1` : reported growth = ?
// result 97.5

// query Then this molecule: `N#CSCC(=O)c1ccc(Cl)cc1`
// result 33.6

====

- Test system: KM12 colon
- Experimental protocol: NCI-60 one-dose screen, 48 h (100 = growth as untreated, 0 = no growth, -100 = all killed)
- Measurement parameters: 10 µM unless noted
- Method: Growth inhibition of the KM12 human tumor cell line is measured as a screen for anti-cancer activity. Cells are grown in 96 well plates and exposed to the test compound for 48 hours. Compounds are tested at a single concentration, which is 10^-5 M for most compounds. The reported endpoint is percent growth (GI% or GIPRCNT), where numbers from 0 - 100% represent growth inhibition, and numbers from -100% - 0 represent cell death. For example, a value of 40 represents 60% growth inhibition. […]
About 83,000 compounds went through this panel and 20% of them were active in at least one assay; those are over-represented in the sample as a whole. The source made the active and inactive calls. The calls were made as follows: active = growth percent below 10; inactive = the rest.
Below, each entry is listed alongside its reported growth.

Reference set (6 entries):
[
  {
    "Compound string": "CN(C)c1ccc(/C=N/N=C(\\C#N)[S][Sn]([Cl])([c]2ccccc2)[c]2ccccc2)cc1",
    "growth": "63.3% (inactive)"
  },
  {
    "Compound string": "N[C@H](C(=O)O)[C@@H]1CC(Cl)=NO1",
    "growth": "18.2% [20 µM] (inactive)"
  },
  {
    "Compound string": "N#CSCC(=O)c1ccc(Cl)cc1",
    "growth": "14.7% (inactive)"
  },
  {
    "Compound string": "Nc1nc(N)c2c(ccc3c2ccn3Cc2cccc([N+](=O)[O-])c2)n1",
    "growth": "-92.3% (active)"
  },
  {
    "Compound string": "c1ccc2c(c1)Nc1cc3ccccc3cc1N2",
    "growth": "44.2% (inactive)"
  },
  {
    "Compound string": "CN(C)CCOc1ccc2c(c1)C(=O)/C(=C\\c1ncc([N+](=O)[O-])n1C)C2",
    "growth": "-68% (active)"
  }
]

// query Would you mind telling me what growth value was observed for `C/C=C1\SC(=S)NC1=O` ?
// result 106% (inactive)

// query Would you kindly repeat that for `O=C(/C=C\c1cc(Br)ccc1O)/C=C/c1cc(Br)ccc1O` ?
// result -71.5% (active)

// query Same question for `Oc1c(Br)cc(Cl)cc1C(c1cc(Cl)cc(Br)c1O)C(Cl)(Cl)Cl` please.
// result 13% (inactive)

// query Lookup `O=C1C=CC(=O)N1C1c2ccccc2-c2ccccc21`
// result 107% (inactive)

// query What would you report for `O=C(Nc1cccc(Br)c1)Oc1ccc(Cl)c2cccnc12` ?
// result 30.5% [100 µM] (inactive)
